The measurements presented in this section are drawn from the supplement of paper PMC11246515.

Listing: total protein half-life in vivo of selected sequences
Test: total protein half-life in vivo (active degradation + dilution); higher = more stable protein
Settings: E. coli NCM3722 delta-clpP; growth: N-lim chemostat; doubling time 6 h
# unit: h | format: bare number

residue_codes="MDALELLINRRSASRLAEPAPTGEQLQNILRAGMRAPDHKSMQPWHFFVIEGEGRERFSAVLEQGAIAAGSDDKAIDKARNAPFRAPLIITVVAKCEENHKVPRWEQEMSAGCAVMAMQMAAVAQGFGGIWRSGALTESPVVREAFGCREQDKIVGFLYLGTPQLKASTSINVPDPTPFVTYF [P0ACY1]" data_value=5.29

total protein half-life in vivo for MPDQTQQFSFKVLTINIHKGFTAFNRRFILPELRDAVRTVSADIVCLQEVMGAHEVHPLHVENWPDTSHYEFLADTMWSDFAYGRNAVYPEGHHGNAVLSRYPIEHYENRDVSVDGAEKRGVLYCRIVPPMTGKAIHVMCVHLGLREAHRQAQLAMLAEWVNELPDGEPVLVAGDFNDWRQKANHPLKVQAGLDEIFTRAHGRPARTFPVQFPLLRLDRIYVKNASASAPTALPLRTWRHLSDHAPLSAEIHL [P0AAW1] is 6.2

total protein half-life in vivo for MRILLIEDDMLIGDGIKTGLSKMGFSVDWFTQGRQGKEALYSAPYDAVILDLTLPGMDGRDILREWREKGQREPVLILTARDALAERVEGLRLGADDYLCKPFALIEVAARLEALMRRTNGQASNELRHGNVMLDPGKRIATLAGEPLTLKPKEFALLELLMRNAGRVLSRKLIEEKLYTWDEEVTSNAVEVHVHHLRRKLGSDFIRTVHGIGYTLGEK is 4.22

###

Test: total protein half-life in vivo (active degradation + dilution); higher = more stable protein
Conditions: E. coli NCM3722 delta-hslV; growth: N-lim chemostat; doubling time 6 h
reported-metric: total protein half-life in vivo (h)
# unit: h | format: bare number

Worked examples follow.
residue_codes="MSQLTHINAAGEAHMVDVSAKAETVREARAEAFVTMRSETLAMIIDGRHHKGDVFATARIAGIQAAKRTWDLIPLCHPLMLSKVEVNLQAEPEHNRVRIETLCRLTGKTGVEMEALTAASVAALTIYDMCKAVQKDMVIGPVRLLAKSGGKSGDFKVEADD [P0A738]" data_value=4.56
residue_codes="MSAGSPKFTVRRIAALSLVSLWLAGCSDTSNPPAPVSSVNGNAPANTNSGMLITPPPKMGTTSTAQQPQIQPVQQPQIQATQQPQIQPVQPVAQQPVQMENGRIVYNRQYGNIPKGSYSGSTYTVKKGDTLFYIAWITGNDFRDLAQRNNIQAPYALNVGQTLQVGNASGTPITGGNAITQADAAEQGVVIKPAQNSTVAVASQPTITYSESSGEQSANKMLPNNKPTATTVTAPVTVPTASTTEPTVSSTSTSTPISTWRWPTEGKVIETFGASEGGNKGIDIAGSKGQAIIATADGRVVYAGNALRGYGNLIIIKHNDDYLSAYAHNDTMLVREQQEVKAGQKIATMGSTGTSSTRLHFEIRYKGKSVNPLRYLPQR [P0ADA3]" data_value=6.44
residue_codes="MTISELLQYCMAKPGAEQSVHNDWKATQIKVEDVLFAMVKEVENRPAVSLKTSPELAELLRQQHSDVRPSRHLNKAHWSTVYLDGSLPDSQIYYLVDASYQQAVNLLPEEKRKLLVQL [P0AF50]" data_value=5.05
residue_codes="MLDLFKAIGLGLVVLLPLANPLTTVALFLGLAGNMNSAERNRQSLMASVYVFAIMMVAYYAGQLVMDTFGISIPGLRIAGGLIVAFIGFRMLFPQQKAIDSPEAKSKSEELEDEPSANIAFVPLAMPSTAGPGTIAMIISSASTVRQSSTFADWVLMVAPPLIFFLVAVILWGSLRSSGAIMRLVGKGGIEAISRLMGFLLVCMGVQFIINGILEIIKTYH [P0AEY1]" data_value=5.91
residue_codes="MQFDWSAIWPAIPLLIEGAKMTLWISVLGLAGGLVIGLLAGFARTFGGWIANHVALVFIEVIRGTPIVVQVMFIYFALPMAFNDLRIDPFTAAVVTIMINSGAYIAEITRGAVLSIHKGFREAGLALGLSRWETIRYVILPLALRRMLPPLGNQWIISIKDTSLFIVIGVAELTRQGQEIIAGNFRALEIWSAVAVFYLIITLVLSFILRRLERRMKIL [P0AEQ6]" data_value=6.66

Pending sequence:
total protein half-life in vivo for MYYPFVRKALFQLDPERAHEFTFQQLRRITGTPFEALVRQKVPAKPVNCMGLTFKNPLGLAAGLDKDGECIDALGAMGFGSIEIGTVTPRPQPGNDKPRLFRLVDAEGLINRMGFNNLGVDNLVENVKKAHYDGVLGINIGKNKDTPVEQGKDDYLICMEKIYAYAGYIAINISSPNTPGLRTLQYGEALDDLLTAIKNKQNDLQAMHHKYVPIAVKIAPDLSEEELIQVADSLVRHNIDGVIATNTTLDRSLVQGMKNCDQTGGLSGRPLQLKSTEIIRRLSLELNGRLPIIGVGGIDSVIAAREKIAAGASLVQIYSGFIFKGPPLIKEIVTHI [P0A7E1] is 6.7
